# TARGET_SYSTEM: Tyrosine-protein phosphatase non-receptor type substrate 1 (Homo sapiens) + Leukocyte surface antigen CD47 (Homo sapiens) (UniProt P78324+Q08722)
# Sequence (P78324 whole entry, looked up, the tested form may be a part): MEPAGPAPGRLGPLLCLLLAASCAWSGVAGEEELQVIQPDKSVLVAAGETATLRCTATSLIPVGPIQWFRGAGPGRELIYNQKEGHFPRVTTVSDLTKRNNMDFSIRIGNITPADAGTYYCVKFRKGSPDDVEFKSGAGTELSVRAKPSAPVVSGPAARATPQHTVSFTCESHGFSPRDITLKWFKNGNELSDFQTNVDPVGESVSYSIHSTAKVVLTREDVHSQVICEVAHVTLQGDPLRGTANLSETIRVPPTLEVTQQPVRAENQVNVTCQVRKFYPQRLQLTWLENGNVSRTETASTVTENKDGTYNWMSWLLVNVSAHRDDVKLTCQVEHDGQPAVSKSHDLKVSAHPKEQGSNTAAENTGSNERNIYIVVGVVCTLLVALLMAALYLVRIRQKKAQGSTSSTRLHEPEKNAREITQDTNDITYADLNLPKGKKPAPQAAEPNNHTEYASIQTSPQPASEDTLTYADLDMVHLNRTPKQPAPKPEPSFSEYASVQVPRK
# Sequence (Q08722 whole entry, looked up, the tested form may be a part): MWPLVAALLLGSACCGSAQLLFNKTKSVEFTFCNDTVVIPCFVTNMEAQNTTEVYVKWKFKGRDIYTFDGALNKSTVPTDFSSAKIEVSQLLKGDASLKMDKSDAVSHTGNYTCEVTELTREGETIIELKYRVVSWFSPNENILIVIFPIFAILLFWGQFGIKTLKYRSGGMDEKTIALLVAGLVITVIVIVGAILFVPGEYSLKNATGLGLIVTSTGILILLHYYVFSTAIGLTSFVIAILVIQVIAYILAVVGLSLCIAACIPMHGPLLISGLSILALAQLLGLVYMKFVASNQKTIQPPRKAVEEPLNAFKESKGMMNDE
# PROCEDURE_DETAILS: CD47-SIRPalpha protein protein interaction - HTRF assay qHTS validation (AID 1347058);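 also: recombinant soluble extracellular CD47 with His tag and biotinylated SIRPalpha domains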
# MEASUREMENT_CONTEXT: TR-FRET HTRF CD47-His / biotin-SIRPalpha binding, ratio 665/615; series mostly up to 38.3 µM
Results filed as inconclusive are left out. Active and inactive are the calls of the source. Calls follow the shape of the dose curve; as a rule, active = well fitted curve in the direction sought with a large enough effect in the signal ratio (not every such curve was filed as active); inconclusive = small, poorly fitted or top-dose-only effect, or effect the other way, or a change in a side signal; inactive = no such curve, though single readings can be large or run the other way; the % refers to the signal ratio.

- COMPOUND: "CNCCC=C1c2ccccc2CCc2ccccc21"
  outcome: "inactive"
- COMPOUND: "CCCn1c(=O)[nH]c(=O)c2[nH]cnc21"
  outcome: "inactive"
- COMPOUND: "CNCCC(Oc1ccccc1C)c1ccccc1 (stereo not drawn)"
  outcome: "inactive"
